Hello, the source for this data is patent US20230279023A1, in case you need it.

In this section, each of the compounds is paired with its reported Kd.
# SYSTEM NAME: CRBN-DDB1 (Homo sapiens (Human))
# TEST SUMMARY: Fluorescence polarization (FP) assay for compound ligand binding to CRBN-DDB1
# CONDITION LABEL: FP displacement of (−)-Thalidomide-Alexa Fluor or Pomalidomide-fluorescein probe; 400 nM CRBN-DDB1, 5 nM probe; Compounds of the Present Invention
# Experimental: Measuring compound ligand binding to CRBN-DDB1 was carried out using an established sensitive and quantitative in vitro fluorescence polarization (FP) based binding assay. […] Compounds were dispensed from serially diluted DMSO stock into black 384-well compatible fluorescence polarization plates using an Echo acoustic dispenser. Compound binding to CRBN-DDB1 was measured by displacement of either a (−)-Thalidomide-Alexa Fluor® or Pomalidomide-fluorescein conjugated probe dye. […]

## Task Param item = O=C1CCC(Nc2ccccc2OC(F)F)C(=O)N1 (stereo not shown) [Compound 55] ; retrieve measured Kd.
## Result < 10 µM

## Task Param item = CN1CC(N(C)C2CCC(=O)NC2=O)C1 (stereo not shown) [Compound 102] ; retrieve measured Kd.
## Result > 100 µM

## Task Param item = COc1ccc(NC2CCC(=O)NC2=O)cc1F (stereo not shown) [Compound 7] ; retrieve measured Kd.
## Result < 10 µM

* * *

In this section, each of the compounds is paired with its reported pKd.
# SYSTEM NAME: CRBN-DDB1 (Homo sapiens (Human), UniProt Q96SW2)
# Sequence (Q96SW2 whole entry): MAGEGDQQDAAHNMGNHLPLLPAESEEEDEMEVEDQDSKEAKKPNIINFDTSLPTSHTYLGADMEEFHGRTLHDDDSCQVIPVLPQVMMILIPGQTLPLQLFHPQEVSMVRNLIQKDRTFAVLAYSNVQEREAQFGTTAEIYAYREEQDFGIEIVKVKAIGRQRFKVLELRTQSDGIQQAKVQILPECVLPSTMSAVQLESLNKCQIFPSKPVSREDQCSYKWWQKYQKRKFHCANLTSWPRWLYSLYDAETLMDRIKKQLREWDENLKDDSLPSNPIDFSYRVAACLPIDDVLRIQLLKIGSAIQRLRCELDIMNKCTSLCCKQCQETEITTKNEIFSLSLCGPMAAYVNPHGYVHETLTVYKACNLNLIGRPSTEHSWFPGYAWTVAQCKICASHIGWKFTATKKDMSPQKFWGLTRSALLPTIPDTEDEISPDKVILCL
# Sequence (Q16531 whole entry partner): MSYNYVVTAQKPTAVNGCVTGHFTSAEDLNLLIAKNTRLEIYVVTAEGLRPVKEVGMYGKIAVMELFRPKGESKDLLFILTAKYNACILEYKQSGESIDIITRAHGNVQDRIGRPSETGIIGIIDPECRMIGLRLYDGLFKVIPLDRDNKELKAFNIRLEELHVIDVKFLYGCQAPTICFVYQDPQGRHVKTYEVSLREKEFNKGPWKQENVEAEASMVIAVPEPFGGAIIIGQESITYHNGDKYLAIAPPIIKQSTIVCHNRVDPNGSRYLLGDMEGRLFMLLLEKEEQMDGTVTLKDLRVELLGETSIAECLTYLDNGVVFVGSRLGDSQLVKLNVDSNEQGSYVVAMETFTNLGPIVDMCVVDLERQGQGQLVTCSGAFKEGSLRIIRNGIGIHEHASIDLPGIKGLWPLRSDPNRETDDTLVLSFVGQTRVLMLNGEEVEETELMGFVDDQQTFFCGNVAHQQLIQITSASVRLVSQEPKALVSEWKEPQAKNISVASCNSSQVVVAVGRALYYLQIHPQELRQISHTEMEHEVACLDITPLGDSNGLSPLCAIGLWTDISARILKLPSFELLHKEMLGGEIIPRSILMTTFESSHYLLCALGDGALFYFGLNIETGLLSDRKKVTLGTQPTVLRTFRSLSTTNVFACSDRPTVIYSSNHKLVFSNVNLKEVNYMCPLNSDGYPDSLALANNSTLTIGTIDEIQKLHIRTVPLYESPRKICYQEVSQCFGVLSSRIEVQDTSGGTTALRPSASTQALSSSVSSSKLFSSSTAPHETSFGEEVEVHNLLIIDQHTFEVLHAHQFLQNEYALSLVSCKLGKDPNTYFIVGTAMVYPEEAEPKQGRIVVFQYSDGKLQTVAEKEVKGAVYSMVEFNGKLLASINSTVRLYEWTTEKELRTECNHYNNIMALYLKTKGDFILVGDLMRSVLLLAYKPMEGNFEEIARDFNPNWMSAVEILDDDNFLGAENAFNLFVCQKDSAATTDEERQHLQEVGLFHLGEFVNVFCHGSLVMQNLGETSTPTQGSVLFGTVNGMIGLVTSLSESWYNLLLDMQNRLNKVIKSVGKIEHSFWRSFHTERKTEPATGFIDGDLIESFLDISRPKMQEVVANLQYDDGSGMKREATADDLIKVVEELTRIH
# TEST SUMMARY: Fluorescence polarization (FP) assay for compound ligand binding to CRBN-DDB1
# CONDITION LABEL: FP displacement of (−)-Thalidomide-Alexa Fluor or Pomalidomide-fluorescein probe; 400 nM CRBN-DDB1, 5 nM probe; Compounds of the Present Invention
pKd: −log10 of the molar value.

> print(dat)
                                   compound  metric  test.result
1  N#Cc1c[nH]nc1NC1CCC(=O)NC1=O (stereo not shown)     pKd       < 4.00
2  O=C1CCC(Nc2cccc(Oc3ccccc3)c2)C(=O)N1 (stereo not shown)     pKd       > 5.00
3  COc1ccc(NC2CCC(=O)NC2=O)c(C)c1 (stereo not shown)     pKd       > 5.00
4  O=C1CCC(Nc2cccc3ccccc23)C(=O)N1 (stereo not shown)     pKd       > 5.00
5  O=C1CCC(Nc2ccc(Oc3ccccc3)cc2)C(=O)N1 (stereo not shown)     pKd       > 5.00
6  CC(C)(C)OC(=O)n1cc(C#N)c(NC2CCC(=O)NC2=O)n1 (stereo not shown)     pKd       < 4.00
7  CC(C)(C)c1ccccc1NC1CCC(=O)NC1=O (stereo not shown)     pKd       > 5.00
8  COc1cc(F)ccc1NC1CCC(=O)NC1=O (stereo not shown)     pKd       > 5.00

## Task Param item = CN(c1ccc(C(F)(F)F)cc1)C1CCC(=O)NC1=O (stereo not shown) ; retrieve measured pKd.
## Result > 5.00

## Task Param item = COc1ccccc1NC1CCC(=O)NC1=O (stereo not shown) ; retrieve measured pKd.
## Result > 5.00

* * *

# SYSTEM NAME: CRBN-DDB1 (Homo sapiens (Human))
# TEST SUMMARY: Fluorescence polarization (FP) assay for compound ligand binding to CRBN-DDB1
# CONDITION LABEL: FP displacement of (−)-Thalidomide-Alexa Fluor or Pomalidomide-fluorescein probe; 400 nM CRBN-DDB1, 5 nM probe; Degronimers
pKd: −log10 of the molar value.
In this section, each of the compounds is paired with its reported pKd.

## Task Param item = Cc1sc2c(c1C)C(c1ccc(Cl)cc1)=N[C@@H](CC(=O)NCCCCCCCCN1CCN(c3ccc(NC4CCC(=O)NC4=O)cc3)CC1)c1nnc(C)n1-2 (some centres unmarked) ; retrieve measured pKd.
## Result > 5.00

## Task Param item = Cc1nnc2n1-c1ccc(-c3cnn(CCCCCCN4CCN(c5ccc(NC6CCC(=O)NC6=O)cc5)CC4)c3)cc1C(c1ccc(Cl)cc1)=NC21CC1 (centres unmarked) ; retrieve measured pKd.
## Result > 5.00

* * *

# SYSTEM NAME: CRBN-DDB1 (Homo sapiens (Human), UniProt Q96SW2)
# TEST SUMMARY: Fluorescence polarization (FP) assay for compound ligand binding to CRBN-DDB1
# CONDITION LABEL: FP displacement of (−)-Thalidomide-Alexa Fluor or Pomalidomide-fluorescein probe; 400 nM CRBN-DDB1, 5 nM probe; Compounds of the Present Invention
# Experimental: Measuring compound ligand binding to CRBN-DDB1 was carried out using an established sensitive and quantitative in vitro fluorescence polarization (FP) based binding assay. […] Compounds were dispensed from serially diluted DMSO stock into black 384-well compatible fluorescence polarization plates using an Echo acoustic dispenser. Compound binding to CRBN-DDB1 was measured by displacement of either a (−)-Thalidomide-Alexa Fluor® or Pomalidomide-fluorescein conjugated probe dye. […]
pKd: −log10 of the molar value.
METRIC: pKd

## Task Param item = O=C1CCC(Nc2ccc(CN3CCOCC3)cc2)C(=O)N1 (stereo not shown) ; retrieve measured pKd.
## Result > 5.00

## Task Param item = O=C1CCC(Nc2ccc(Cl)cc2)C(=O)N1 (stereo not shown) ; retrieve measured pKd.
## Result > 5.00

* * *

# SYSTEM NAME: CRBN-DDB1 (Homo sapiens (Human), UniProt Q96SW2)
# TEST SUMMARY: Fluorescence polarization (FP) assay for compound ligand binding to CRBN-DDB1
# CONDITION LABEL: FP displacement of (−)-Thalidomide-Alexa Fluor or Pomalidomide-fluorescein probe; 400 nM CRBN-DDB1, 5 nM probe; Compounds of the Present Invention
# Protocol: Measuring compound ligand binding to CRBN-DDB1 was carried out using an established sensitive and quantitative in vitro fluorescence polarization (FP) based binding assay. […] Compounds were dispensed from serially diluted DMSO stock into black 384-well compatible fluorescence polarization plates using an Echo acoustic dispenser. Compound binding to CRBN-DDB1 was measured by displacement of either a (−)-Thalidomide-Alexa Fluor® or Pomalidomide-fluorescein conjugated probe dye. […]
pKd: −log10 of the molar value.
METRIC: pKd

Example cases with answers are listed next.
> print(dat)
                                   molecule                               system.name  test.result
1  O=C1CCC(Nc2cccc(-c3ccccc3)c2)C(=O)N1 (centres unmarked)  CRBN-DDB1 (Homo sapiens (Human), UniProt Q96SW2)       > 5.00
2  CNC(=O)CN(C)C1CCC(=O)NC1=O (centres unmarked)  CRBN-DDB1 (Homo sapiens (Human), UniProt Q96SW2)       < 4.00
3  COc1ccc(C)cc1NC1CCC(=O)NC1=O (centres unmarked)  CRBN-DDB1 (Homo sapiens (Human), UniProt Q96SW2)       > 5.00
4  CN(c1ccccc1)C1CCC(=O)NC1=O (centres unmarked)  CRBN-DDB1 (Homo sapiens (Human), UniProt Q96SW2)       > 5.00
5  COc1ccc(Cl)cc1NC1CCC(=O)NC1=O (centres unmarked)  CRBN-DDB1 (Homo sapiens (Human), UniProt Q96SW2)       > 5.00
6  CN(c1cccc(F)c1)C1CCC(=O)NC1=O (centres unmarked)  CRBN-DDB1 (Homo sapiens (Human), UniProt Q96SW2)       > 5.00
7  Cc1ccc(NC2CCC(=O)NC2=O)cc1 (centres unmarked)  CRBN-DDB1 (Homo sapiens (Human), UniProt Q96SW2)       > 5.00
8  COc1cccc(N(C)C2CCC(=O)NC2=O)c1 (centres unmarked)  CRBN-DDB1 (Homo sapiens (Human), UniProt Q96SW2)       > 5.00

## Task Param item = CN1CCC(N(C)C2CCC(=O)NC2=O)CC1=O (centres unmarked) ; retrieve measured pKd.
## Result < 4.00

## Task Param item = CCCOc1ccc(NC2CCC(=O)NC2=O)cc1 (centres unmarked) ; retrieve measured pKd.
## Result > 5.00

## Task Param item = O=C1CCC(Nc2cccc(C(F)(F)F)c2)C(=O)N1 (centres unmarked) ; retrieve measured pKd.
## Result > 5.00

## Task Param item = CN(c1cccc(Br)c1)C1CCC(=O)NC1=O (centres unmarked) ; retrieve measured pKd.
## Result > 5.00

* * *

In this section, each of the compounds is paired with its reported pKd.
# SYSTEM NAME: CRBN-DDB1 (Homo sapiens (Human), UniProt Q96SW2)
# TEST SUMMARY: Fluorescence polarization (FP) assay for compound ligand binding to CRBN-DDB1
# CONDITION LABEL: FP displacement of (−)-Thalidomide-Alexa Fluor or Pomalidomide-fluorescein probe; 400 nM CRBN-DDB1, 5 nM probe; Compounds of the Present Invention
pKd: −log10 of the molar value.

## Task Param item = CN(c1cccc(C(F)(F)F)c1)C1CCC(=O)NC1=O (centres unmarked) ; retrieve measured pKd.
## Result > 5.00

## Task Param item = COc1ccc(NC2CCC(=O)NC2=O)c(F)c1 (centres unmarked) ; retrieve measured pKd.
## Result > 5.00

## Task Param item = O=C1CCC(Nc2cccc(F)c2)C(=O)N1 (centres unmarked) ; retrieve measured pKd.
## Result > 5.00
